# experimental target: BRD4 (Homo sapiens, UniProt O60885)
# procedure summary: Time resolved fluorescence resonance energy transfer (TR-FRET) binding assay, bromodomain BRD4
# test conditions: one of the FRET assays described; read-out: FRET BRD4 IC50
pIC50: −log10 of the molar value.
parameter: pIC50

// input: 4 compounds below; output: pIC50 for each
1. Cc1nnn(C)c1-c1cnc2c3ccc(N(C)C)nc3n([C@H](c3ccccc3)C3CCOCC3)c2c1
2. COc1ccc2c3ncc(-c4c(C)nnn4C)cc3n(C(c3cccc(F)c3)C3CCOCC3)c2n1 (racemic)
3. COc1ncc(S(C)(=O)=O)c2c1c1ncc(-c3c(C)nnn3C)cc1n2C(c1ccccc1)C1CCC(F)(F)CC1 (single isomer, unassigned) [Example 90]
4. Cc1nnn(C)c1-c1cnc2c3cnc(C(C)(C)O)cc3n([C@H](c3ncccc3F)C3CCOCC3)c2c1

Result string:
1. > 9.00
2. > 8.00
3. > 8.00
4. > 8.00

###

# experimental target: BRD4 (Homo sapiens, UniProt O60885)
# procedure summary: Time resolved fluorescence resonance energy transfer (TR-FRET) binding assay, bromodomain BRD4
# test conditions: one of the FRET assays described; read-out: FRET BRD4 IC50
parameter: IC50

Consider the following illustrative entries.
INSERT INTO results (molecule, experimental_target, parameter, observed) VALUES
  ('COc1nnn(C)c1-c1cnc2c3ccc(N4CCN(C)CC4)nc3n([C@H](c3ccccc3F)C3CCOCC3)c2c1 [Example 254]', 'BRD4 (Homo sapiens, UniProt O60885)', 'IC50', '< 1 nM'),
  ('CCCC(c1ncccc1F)n1c2cc(-c3c(C)nnn3C)ncc2c2ncc(C(C)(C)O)cc21 (single isomer, unassigned) [Example 371]', 'BRD4 (Homo sapiens, UniProt O60885)', 'IC50', '< 10 nM');

Query string: Output measured IC50 for this item: [2H]C([2H])([2H])c1nnn(C)c1-c1cnc2c3c(NCC(F)(F)F)cncc3n(C(c3ncccc3F)C3CCOCC3)c2c1 (stereo not drawn) [Example 304]
Result string: < 10 nM

###

# experimental target: BRD4 (Homo sapiens)
# procedure summary: Time resolved fluorescence resonance energy transfer (TR-FRET) binding assay, bromodomain BRD4
# test conditions: one of the FRET assays described; read-out: FRET BRD4 IC50
pIC50: −log10 of the molar value.
parameter: pIC50

Before answering, review these 3 worked examples.
INSERT INTO results (smiles_input, experimental_target, parameter, observed) VALUES
  ('Cc1nnn(C)c1-c1cnc2c3ccc(N4CCN(C5CCN(C)CC5)CC4)nc3n([C@H](c3ccccc3F)C3CCOCC3)c2c1', 'BRD4 (Homo sapiens)', 'pIC50', '> 9.00'),
  ('[2H]C([2H])([2H])c1nnn(C)c1-c1cnc2c3cnc(OC)cc3n([C@H](c3ccccc3)C3CCOCC3)c2c1', 'BRD4 (Homo sapiens)', 'pIC50', '> 9.00'),
  ('[2H]C([2H])([2H])c1nnn(C)c1-c1cnc2c3c(OC)ncc(S(C)(=O)=O)c3n([C@H](c3ccccc3)C3CCOCC3)c2c1', 'BRD4 (Homo sapiens)', 'pIC50', '> 9.00');

We now examine a further compound.
Query string: Tell me measured pIC50 for Cc1noc(C)c1-c1cnc2c3cnc(C(C)(C)O)cc3n([C@H](c3ccc(F)cc3)C3CCOCC3)c2c1 please.
Result string: > 8.00

###

# experimental target: BRD4 (Homo sapiens, UniProt O60885)
# procedure summary: Time resolved fluorescence resonance energy transfer (TR-FRET) binding assay, bromodomain BRD4
# test conditions: one of the FRET assays described; read-out: FRET BRD4 IC50
pIC50: −log10 of the molar value.
parameter: pIC50

INSERT INTO measurements (molecule, observed) VALUES
  ('[2H]C([2H])([2H])c1nnn(C)c1-c1cnc2c3ccc(-c4c(C([2H])([2H])[2H])nnn4C)nc3n([C@@H](c3ccccc3)C3CCOCC3)c2c1', '> 8.00'),
  ('Cc1noc(C)c1-c1cnc2c3cnc(Cl)cc3n(C(c3ncccc3F)C3CCOCC3)c2c1 (stereo not drawn)', '> 5.82'),
  ('[2H]C([2H])([2H])c1nnn(C)c1-c1cnc2c3c(NCC(F)(F)F)cncc3n([C@H](c3ccccc3)C3CCOCC3)c2c1', '> 9.00'),
  ('[2H]C([2H])([2H])c1nnn(C)c1-c1cnc2c3c(OC4COC4)ncc(S(C)(=O)=O)c3n([C@H](c3ccccc3)C3CCOCC3)c2c1', '> 8.00'),
  ('Cc1nnn(C)c1-c1cnc2c3cnc(C#N)nc3n([C@H](c3ccccc3)C3CCOCC3)c2c1', '> 5.82');

--- query ---
Query string: Please respond with reported pIC50 (system BRD4 (Homo sapiens, UniProt O60885)) for Cc1nnn(C)c1-c1cnc2c3ccc(N4CCC(C)(O)CC4)nc3n([C@H](c3ccccc3)C3CCOCC3)c2c1 .
Result string: > 9.00

###

# experimental target: BRD4 (Homo sapiens, UniProt O60885)
# procedure summary: Time resolved fluorescence resonance energy transfer (TR-FRET) binding assay, bromodomain BRD4
# test conditions: one of the FRET assays described; read-out: FRET BRD4 IC50
pIC50: −log10 of the molar value.
Hi there, I'd appreciate the recorded pIC50 for every entry that follows.

INSERT INTO measurements (molecule, parameter, observed) VALUES
  ('Cc1noc(C)c1-c1cnc2c3ccc(S(C)(=O)=O)nc3n([C@H](c3ccccc3)C3CCOCC3)c2c1', 'pIC50', '> 8.00'),
  ('[2H]C([2H])([2H])c1nnn(C)c1-c1cc2c(cn1)c1ncc(C(C)(C)O)cc1n2C(c1ncccc1F)C1CCOCC1 (single isomer, unassigned) [Example 367]', 'pIC50', '> 8.00'),
  ('[2H]C([2H])([2H])c1nnn(C)c1-c1cnc2c3ccc(N4CCN(C(C)C)CC4)nc3n([C@H](c3ccccc3)C3CCOCC3)c2c1', 'pIC50', '> 8.00'),
  ('Cc1nnn(C)c1-c1cnc2c3ccc(N4CC(O)C4)nc3n([C@H](c3ccccc3)C3CCOCC3)c2c1', 'pIC50', '> 9.00');

Batch request: pIC50 per item, same order as input.
1. Cc1nnn(C)c1-c1cnc2c3ccnc(F)c3n([C@H](c3ccccc3F)C3CCOCC3)c2c1
2. [2H]C([2H])([2H])c1nnn(C)c1-c1cnc2c3c(OC)ncc(S(C)(=O)=O)c3n([C@H](c3ccccc3)C3CCC(F)(F)CC3)c2c1
3. Cc1noc(C)c1-c1cnc2c3ccc(S(C)(=O)=O)nc3n([C@H](c3ccccc3F)C3CCOCC3)c2c1

Result string:
["> 9.00", "> 9.00", "> 8.00"]

###

# experimental target: BRD4 (Homo sapiens, UniProt O60885)
# procedure summary: Time resolved fluorescence resonance energy transfer (TR-FRET) binding assay, bromodomain BRD4
# test conditions: one of the FRET assays described; read-out: FRET BRD4 IC50
parameter: IC50

INSERT INTO results (smiles_input, observed) VALUES
  ('[2H]C([2H])([2H])c1nnn(C)c1-c1cnc2c3cnc(N4CCN(C)CC4)cc3n([C@H](c3ccccc3F)C3CCOCC3)c2c1', '< 10 nM');

For every record below, what is its IC50?
1. Cc1noc(C)c1-c1cnc2c3cnc(C(C)(C)O)cc3n([C@H](c3ccccc3)C3CCOCC3)c2c1
2. Cc1nnn(C)c1-c1cnc2c3ccc(-c4c(C)nnn4C)nc3n([C@H](c3ccccc3)C3CCOCC3)c2c1
3. CSc1ccc2c3ncc(-c4c(C)nnn4C)cc3n([C@H](c3ccccc3)C3CCOCC3)c2n1

Result string:
["< 10 nM", "< 1 nM", "< 10 nM"]

###

# experimental target: BRD4 (Homo sapiens)
# procedure summary: Time resolved fluorescence resonance energy transfer (TR-FRET) binding assay, bromodomain BRD4
# test conditions: one of the FRET assays described; read-out: FRET BRD4 IC50
Please go through the items and note down their IC50.

INSERT INTO assay_data (compound, experimental_target, parameter, observed) VALUES
  ('C=C(OCC)c1ccc2c3ncc(-c4c(C)nnn4C)cc3n([C@H](c3ccccc3)C3CCOCC3)c2n1', 'BRD4 (Homo sapiens)', 'IC50', '< 10 nM'),
  ('Cc1nnn(C)c1-c1cnc2c3c(N(C)C)ncc(Cl)c3n([C@H](c3ccccc3)C3CCOCC3)c2c1', 'BRD4 (Homo sapiens)', 'IC50', '< 1 nM'),
  ('Cc1nnn(C)c1-c1cnc2c3ccnc(N4CCN(C)CC4)c3n([C@H](c3ccccc3)C3CCOCC3)c2c1', 'BRD4 (Homo sapiens)', 'IC50', '< 10 nM'),
  ('[2H]C([2H])([2H])c1nnn(C)c1-c1cnc2c3c(OCC(C)C)ncc(S(C)(=O)=O)c3n([C@H](c3ccccc3)C3CCOCC3)c2c1', 'BRD4 (Homo sapiens)', 'IC50', '< 10 nM');

Would you mind giving IC50 for every compound in the list below?
1. [2H]C([2H])([2H])c1nnn(C)c1-c1cnc2c3c(N[C@@H](C)C4CC4)ncc(S(C)(=O)=O)c3n([C@H](c3ccccc3)C3CCOCC3)c2c1
2. [2H]C([2H])([2H])c1nnn(C)c1-c1cnc2c3c(NCC(F)(F)F)cncc3n(C(c3ncccc3F)C3CCOCC3)c2c1 (stereo not drawn) [Example 303]

Result string:
["< 1 nM", "< 10 nM"]
